subject-of-test: Alpha-2C adrenergic receptor (Homo sapiens) (UniProt P18825)
Sequence (P18825 whole entry, looked up): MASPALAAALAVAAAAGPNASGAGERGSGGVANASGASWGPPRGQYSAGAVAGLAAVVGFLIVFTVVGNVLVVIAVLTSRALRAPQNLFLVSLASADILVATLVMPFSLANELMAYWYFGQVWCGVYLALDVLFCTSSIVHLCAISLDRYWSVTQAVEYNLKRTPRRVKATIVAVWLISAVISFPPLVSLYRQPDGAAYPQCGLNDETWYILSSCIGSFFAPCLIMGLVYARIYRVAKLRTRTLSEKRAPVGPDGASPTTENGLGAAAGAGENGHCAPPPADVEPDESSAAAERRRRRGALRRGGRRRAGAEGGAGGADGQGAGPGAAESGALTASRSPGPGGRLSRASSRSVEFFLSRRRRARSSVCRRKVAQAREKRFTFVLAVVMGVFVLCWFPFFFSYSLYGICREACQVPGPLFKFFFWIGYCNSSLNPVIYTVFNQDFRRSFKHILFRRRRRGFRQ
protocol-text: modulators of alpha2C/GIRK thallium flux, primary screen, cell-based, HEK293 alpha2C/GIRK1/2 (AID 624);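 further: slope of fluorescence ratio to pre-addition baseline per second over 15 to 24 s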
test-parameters: thallium flux BTC fluorescence, at 10 µM, actives lie on both sides
property-name: slope

>>> print(df.to_string())
                                   molecule                           subject_of_test  numeric_result
0            CN(Cc1ccccc1)Cc1c[nH]c2ccccc12  Alpha-2C adrenergic receptor (Homo sapiens) (UniProt P18825)         0.00379
1  CCOC(=O)c1[nH]c2cc3c(cc2c1NC(=O)CN1CCC(C)CC1)OCO3  Alpha-2C adrenergic receptor (Homo sapiens) (UniProt P18825)         0.00467
2  COCCCNC(=O)C(C#N)c1nc2ccccc2nc1N1CCN(Cc2ccccc2)CC1 (centres undefined)  Alpha-2C adrenergic receptor (Homo sapiens) (UniProt P18825)         0.00118
3   Cc1cc(C)nc(NC2=NCC(=O)N2c2ccc(Cl)cc2)n1  Alpha-2C adrenergic receptor (Homo sapiens) (UniProt P18825)         0.00625
4  COc1ccc(C2=CC(c3cccc(OC)c3)n3nnnc3N2)cc1 (centres undefined)  Alpha-2C adrenergic receptor (Homo sapiens) (UniProt P18825)         0.00383
5  CCCC(=O)O[C@]1(C(=O)CCl)[C@@H](C)C[C@H]2[C@@H]3CCC4=CC(=O)C=C[C@]4(C)[C@@]3(F)C(=O)C[C@@]21C  Alpha-2C adrenergic receptor (Homo sapiens) (UniProt P18825)         0.00401
6  CCCOc1ccc(N2C(=O)C3ON(c4ccccc4)C(c4ccc(O)c(OC)c4)C3C2=O)cc1 (centres undefined)  Alpha-2C adrenergic receptor (Homo sapiens) (UniProt P18825)         0.00809
7  CC(C)OC(=O)C(C)(C)Oc1ccc(C(=O)c2ccc(Cl)cc2)cc1  Alpha-2C adrenergic receptor (Homo sapiens) (UniProt P18825)         0.00465
8       CC1(C)Cc2c(sc3c4nnnn4c4nnnn4c23)CO1  Alpha-2C adrenergic receptor (Homo sapiens) (UniProt P18825)          0.0051
